The origin of these recorded values is PubChem BioAssay (EPA / NIEHS).

TESTED_TARGET: Cellular tumor antigen p53 (Homo sapiens) (UniProt P04637)
Sequence (P04637 whole entry, looked up): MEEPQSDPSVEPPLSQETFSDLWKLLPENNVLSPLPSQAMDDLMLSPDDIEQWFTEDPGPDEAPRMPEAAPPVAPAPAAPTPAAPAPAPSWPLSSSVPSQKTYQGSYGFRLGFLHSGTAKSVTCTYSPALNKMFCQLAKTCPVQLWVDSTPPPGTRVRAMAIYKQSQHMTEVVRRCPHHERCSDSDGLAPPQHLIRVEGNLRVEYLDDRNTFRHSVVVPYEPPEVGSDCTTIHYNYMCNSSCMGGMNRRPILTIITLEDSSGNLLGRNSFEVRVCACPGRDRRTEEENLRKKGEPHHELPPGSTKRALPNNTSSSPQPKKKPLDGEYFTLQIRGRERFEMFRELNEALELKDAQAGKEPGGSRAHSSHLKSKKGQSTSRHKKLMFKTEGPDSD
METHOD_NOTES: ATG_p53_CIS: Attagene CIS-FACTORIAL HepG2 Assay for human p53 Transcription Factor (AID 2282994)
EXPERIMENTAL_SETUP: HepG2 p53 cis-element reporter, Attagene mRNA; actives raise or lower the signal
Procedure: ATG_CIS is a cell-based, multiplexed-readout assay that uses HepG2, a human liver cell line, with measurements taken at 24 hours after chemical dosing in a 24-well plate.ATG_p53_CIS is one of 52 assay component(s) measured or calculated from the ATG_CIS assay. […] This assay endpoint, ATG_p53_CIS, was analyzed with bidirectional fitting relative to DMSO as the negative control and baseline of activity. […]
Active and inactive are the calls of the source. Rule for the calls: active = hit-call score of the fitted dose curve at least 0.9, where 1 is the maximum; inactive = score below 0.9.
RECORDED_METRIC: outcome

| CPD_SMILES | VALUE_OBSERVED |
| --- | --- |
| Brc1ccc(Br)c(Br)c1 | inactive |
| COC(C)(C)CCO | inactive |
| C=COCCOCCOC=C | inactive |

---

TESTED_TARGET: Nuclear receptor subfamily 4 group A member 2 (Homo sapiens) (UniProt P43354)
Sequence (P43354 whole entry, looked up): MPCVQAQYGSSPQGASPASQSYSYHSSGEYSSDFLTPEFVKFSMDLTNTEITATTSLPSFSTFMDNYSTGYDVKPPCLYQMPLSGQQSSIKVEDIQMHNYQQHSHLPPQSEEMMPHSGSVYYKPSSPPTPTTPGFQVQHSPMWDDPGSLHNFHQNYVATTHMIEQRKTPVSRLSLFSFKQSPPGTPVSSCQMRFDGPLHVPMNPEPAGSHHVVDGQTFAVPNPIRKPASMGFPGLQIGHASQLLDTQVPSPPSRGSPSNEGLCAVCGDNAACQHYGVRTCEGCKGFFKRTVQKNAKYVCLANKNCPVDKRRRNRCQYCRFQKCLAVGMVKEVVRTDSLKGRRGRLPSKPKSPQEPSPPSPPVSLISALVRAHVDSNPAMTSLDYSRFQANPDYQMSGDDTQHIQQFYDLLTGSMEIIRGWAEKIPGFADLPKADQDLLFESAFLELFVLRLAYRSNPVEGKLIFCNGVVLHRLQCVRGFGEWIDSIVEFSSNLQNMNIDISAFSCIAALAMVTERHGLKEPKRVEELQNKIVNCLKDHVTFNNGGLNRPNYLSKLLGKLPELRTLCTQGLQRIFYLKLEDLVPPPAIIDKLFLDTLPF
METHOD_NOTES: ATG_NURR1_TRANS: Attagene TRANS-FACTORIAL HepG2 Assay for human Nuclear Receptor Related Protein 1 (NURR1) (AID 2282985)
EXPERIMENTAL_SETUP: HepG2 Attagene TRANS reporter, mRNA readout
Records with an inconclusive call do not appear. Activity calls are given as the source filed them. Rule for the calls: active = hit-call score of the fitted dose curve at least 0.9, where 1 is the maximum; inconclusive = response in the unintended direction; inactive = score below 0.9.
Can you answer with just one of these options? TRUE = active, FALSE = inactive

Solved entries:
| COMPOUND | CLASS_ASSIGNMENT |
| --- | --- |
| Nc1ccc2c(O)cc(S(=O)(=O)O)cc2c1 | FALSE |
| O=C(Nc1ccc2c(c1)Cc1ccccc1-2)C(F)(F)F | FALSE |
| CCCCCCCC(=O)OCCCCCC | FALSE |

Problem: Dear colleague, could you share the recorded outcome for "C[Si]1(C)O[Si](C)(C)O[Si](C)(C)O1" when you have a moment?
Solution: FALSE

Problem: Dear colleague, could you share the recorded outcome for "CC(C)OCCO" when you have a moment?
Solution: FALSE

Problem: Dear colleague, could you share the recorded outcome for "C/C=C(\C)C(=O)OCCc1ccccc1" when you have a moment?
Solution: FALSE

Problem: Dear colleague, could you share the recorded outcome for "C=C(C)CNCC" when you have a moment?
Solution: FALSE

Problem: Dear colleague, could you share the recorded outcome for "CCC(=O)OCCOc1ccccc1" when you have a moment?
Solution: FALSE

Problem: Dear colleague, could you share the recorded outcome for "CCCCN(CCCC)C(=O)N(CCCC)CCCC" when you have a moment?
Solution: TRUE

Problem: Dear colleague, could you share the recorded outcome for "CN(C)C(=S)SC(=S)N(C)C" when you have a moment?
Solution: FALSE

Problem: Dear colleague, could you share the recorded outcome for "Oc1c(Cl)cc(Cl)c(Cl)c1Cc1c(O)c(Cl)cc(Cl)c1Cl" when you have a moment?
Solution: TRUE

Problem: Dear colleague, could you share the recorded outcome for "Nc1ccc(Cl)c([N+](=O)[O-])c1" when you have a moment?
Solution: FALSE

Problem: Dear colleague, could you share the recorded outcome for CC(C)CC(C)CC(O)CC(C)C (stereo not given) when you have a moment?
Solution: FALSE

Problem: Dear colleague, could you share the recorded outcome for "O=Cc1ccccc1S(=O)(=O)O" when you have a moment?
Solution: FALSE

Problem: Dear colleague, could you share the recorded outcome for "O=P(O)(O)O" when you have a moment?
Solution: FALSE
